# experimentNotes: LAP4-GFP expression modulators in yeast, confirmation, cell-based, cherry picks, flow cytometry, mother/daughter gates (AID 2271);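 note: ratio of sample to DMSO plate mean so 100% equals DMSO level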
# conditionSet: S. cerevisiae LAP4-GFP strain, 3 h, measured here: mother cell gate response, at 10 µM, stronger effect = higher value, 100 means same as DMSO control
testReadout: GFP response relative to DMSO (%)
Reply numerically in %, unit not repeated.

# annotated cases, reported GFP response relative to DMSO shown
[
  {
    "molecule": "Cc1ccc2c(c1)/C(=C/c1ccc(F)cc1)C(=O)N2",
    "measurementUnit": "%",
    "GFP response relative to DMSO": 123
  },
  {
    "molecule": "C/C(=N\\NC(=O)c1cccc(Br)c1)c1ccc(Br)cc1",
    "measurementUnit": "%",
    "GFP response relative to DMSO": 107
  },
  {
    "molecule": "Cc1ccc(-c2ccc(/C=N/NC(N)=S)o2)cc1",
    "measurementUnit": "%",
    "GFP response relative to DMSO": 115
  },
  {
    "molecule": "C/C(CC(=O)Nc1cc(C)ccn1)=N\\NC(=O)c1cccc(F)c1",
    "measurementUnit": "%",
    "GFP response relative to DMSO": 99.3
  },
  {
    "molecule": "CCOc1ccc(C(=O)/C=C/c2ccc(SC)cc2)cc1",
    "measurementUnit": "%",
    "GFP response relative to DMSO": 103
  }
]

Alright, here's another molecule for you.
Fill in GFP response relative to DMSO for record O=C1C2C3C=CC(CO)(O3)C2C(=O)N1c1ccccc1-c1ccccc1 (centres undefined)
132
